Data credit: patent US4097599A

test system: Saccharomyces cerevisiae; test: Inhibition of the growth of Saccharomyces cerevisiae on two substrates; format: cell-based, Saccharomyces cerevisiae strain L410; conditions: glucose substrate, 24 hours, read-out: Inhibition of the growth of Saccharomyces cerevisiae, glucose, I50
reported.endpoint: IC50 (µM)

compound: FC(F)(F)c1n[nH]c(-c2ccc(Cl)c(Cl)c2)n1 [20(e)]
result.units: µM
IC50: 300

1: FC(F)(F)c1n[nH]c(-c2ccccc2)n1
2: FC(F)(F)c1n[nH]c(-c2ccc(Cl)cc2)n1
// pick larger IC50 from pair: 1 vs 2 When you have decided, please share the label of that item.
1

###

tested on: rat liver monoamine oxidase; assay: Inhibition of rat liver monoamine oxidase; assay type: biochemical; conditions: relative to I50 value of BTS 27271 = 100
reported.endpoint: Relative inhibition of rat liver monoamine oxidase

compound: FC(F)(F)c1n[nH]c(-c2ccccc2)n1 [20(c)]
system.tested: rat liver monoamine oxidase
quantitative.result: 0
//
compound: CC(C)(C)c1ccccc1-n1cnnc1C(F)(F)F [Example 5]
system.tested: rat liver monoamine oxidase
quantitative.result: 0
//
compound: FC(F)(F)c1n[nH]c(-c2ccc(Cl)c(Cl)c2)n1 [20(e)]
system.tested: rat liver monoamine oxidase
quantitative.result: 42

P: Cc1nnc(C(F)(F)F)n1-c1ccccc1 [Example 11]
Q: COc1ccccc1-n1cnnc1C(F)(F)F [Example 6]
Consider P and Q . Which of these has its Relative inhibition of rat liver monoamine oxidase at a higher number? The response must carry the label of the picked entry.
Q
(Q: 5, P: 2)

###

tested on: rat liver monoamine oxidase; experiment: Inhibition of rat liver monoamine oxidase; format: biochemical; settings: relative to I50 value of BTS 27271 = 100
reported.endpoint: Relative inhibition of rat liver monoamine oxidase

molecule: FC(F)(F)c1nncn1-c1ccccc1
quantitative.result: 0
//
molecule: CN=CNc1ccc(C)cc1C [BTS 27271, reference compound]
quantitative.result: 100

a: FC(F)(F)c1nncn1-c1ccc(Cl)cc1
b: CC(C)(C)c1ccc(-n2cnnc2C(F)(F)F)cc1
c: FC(F)(F)c1nc[nH]n1
d: FC(F)(F)c1ncn(-c2ccccc2)n1
Hello, I need these entries ordered by Relative inhibition of rat liver monoamine oxidase, highest reading first. Thanks! Answer format: the labels, in the requested order.
d, a, b, c
